System: CCRF-CEM
Assay: NCI tumour cell line growth inhibition, 48 h
Activity calls are given as the source filed them. Cut-off read from the data, not from the text of the source: active = GI50 up to about 1.1 µM and inactive = higher.
Parameter measured: GI50

The following compounds have reported results that may help.
Clc1cc(Cl)cc(C2ON=C(c3ccccc3)N2C23CC4CC(CC(C4)C2)C3)c1 (centres undefined)
> 10 µM (inactive)
NCC(=O)OCN1C(=O)C2C3C=CC(C2C1=O)C1C2C(=O)N(COC(=O)CN)C(=O)C2C31 (centres undefined)
21 µM (inactive)
CC1(C23CC4CC(CC(C4)C2)C3)n2c(=O)n(-c3ccccc3)c(=O)n2C1(C)C12CC3CC(CC(C3)C1)C2 (centres undefined)
> 100 µM (inactive)
COc1ccc(NC(=O)C(C)Oc2ccc(OCC3CCCCC3)cc2)cc1 (centres undefined)
71.1 µM (inactive)
O=C(/C=C/c1ccc2ccccc2c1)NCc1ccc(C(=O)NCc2ccccc2)cc1
> 93.3 µM (inactive)
O=C1N2Cc3c4ccc5c3CN3C(=O)N6Cc7c(ccc(c7CN1C6(c1ccccc1)C23c1ccccc1)OCCOCCNCCOCCO4)OCCOCCNCCOCCO5 (centres undefined)
23.2 µM (inactive)
COc1cc2c(cc1-c1coc3cc(OCC=C(C)C)ccc3c1=O)OCO2
> 10 µM (inactive)
CCn1c(-c2ccc(/N=N/Nc3ccc(-c4n[nH]c(=S)n4CC)cc3)cc2)n[nH]c1=S
3.91 µM (inactive)

The record that follows has no GI50 shown yet.
GI50 measured on Cn1/c(=N\S(=O)(=O)c2ccccc2)n(S(=O)(=O)c2ccccc2)c2ccccc21 = 24.7 µM (inactive)

###

Here, each record is paired with measured GI50 data.
Tested on: HCC 2998
Assay: NCI tumour cell line growth inhibition, 48 h
Activity calls are given as the source filed them. Cut-off read from the data, not from the text of the source: active = GI50 up to about 1.1 µM and inactive = higher.

The following compounds have reported results that may help.
CC(C)[C@H](NC(=O)[C@H](N)Cc1ccc(N(CCCl)CCCl)cc1)C(=O)O
> 100 µM (inactive)
O=Cc1ccc(-c2cc(C=O)c(-c3cccs3)[nH]2)s1
16.6 µM (inactive)
CC1=C2C(O)C(C(C)C(=O)NCC(C)C)CCC2(C)C=CC1=O (stereo not drawn)
> 100 µM (inactive)
COCOCC/C=C/C=O
> 100 µM (inactive)

GI50 measured on COc1cc2c(cc1-c1coc3cc(OCC=C(C)C)ccc3c1=O)OCO2 = 15.4 µM (inactive)

GI50 measured on CCOC(=O)C1C(NC(N)=O)N(Cc2ccccc2)C(=O)N1Cc1ccccc1 (stereo not drawn) = > 100 µM (inactive)

GI50 measured on COc1ccc(OC)c2[nH]c(Sc3c([N+](=O)[O-])ncn3C)nc12 = 20.3 µM (inactive)

GI50 measured on CN(C)c1ccc(/C=C(\NC(=O)c2ccccc2)c2nc3ccc4c(c3[nH]2)C(=O)c2ccccc2C4=O)cc1 = > 100 µM (inactive)

GI50 measured on CCc1n[nH]c(=O)n1NC(=O)CCCC(=O)O = > 100 µM (inactive)

GI50 measured on COc1ccccc1N1C(=O)C2C3c4ccccc4C(OC(C)=O)(c4ccccc43)C2C1=O (stereo not drawn) = > 100 µM (inactive)

###

Here, each record is paired with measured GI50 data.
Tested on: LXFL 529
Assay: NCI tumour cell line growth inhibition, 48 h
Calls of active or inactive are those of the source. No stated cut-off is given here; in the data, active = GI50 up to about 1.1 µM and inactive = higher.

The following compounds have reported results that may help.
CC1=C(c2cc(C(=O)Nc3cccc(C(F)(F)F)c3)ncn2)Sc2ccccc2N1
> 100 µM (inactive)
O=C(CO)CC(=O)C(=O)Nc1nc([N+](=O)[O-])cs1
> 100 µM (inactive)
COc1cc(C)c2c(c1C)OC(=O)c1c(C)c(Cl)c(O)c(C=O)c1O2
13.9 µM (inactive)

The record that follows has no GI50 shown yet.
GI50 measured on CN(C)c1ccc(/C=C(\NC(=O)c2ccccc2)c2nc3ccc4c(c3[nH]2)C(=O)c2ccccc2C4=O)cc1 = 39.6 µM (inactive)
